Task for the reader: assign each of the following molecules its reported kd.
target: T1, monomeric human PRLR (hPRLR.mmh; SEQ ID NO:401) (Homo sapiens, UniProt P16471); assay: Surface plasmon resonance (Biacore T200), antibody-capture format; format: binding; conditions: 25° C., analyte hPRLR.mmh
T1 construct: soluble monomeric (hPRLR.mmh); mmh (myc-myc-hexahistidine) (C)
T1 sequence (P16471 with tags, fused parts or gaps): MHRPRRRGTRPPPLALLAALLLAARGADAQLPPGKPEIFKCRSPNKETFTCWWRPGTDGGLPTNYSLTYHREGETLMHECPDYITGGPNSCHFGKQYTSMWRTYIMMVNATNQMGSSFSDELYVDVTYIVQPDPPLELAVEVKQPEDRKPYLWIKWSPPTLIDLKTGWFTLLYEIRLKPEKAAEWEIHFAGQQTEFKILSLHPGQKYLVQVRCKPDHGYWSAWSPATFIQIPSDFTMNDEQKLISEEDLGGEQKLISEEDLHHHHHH
Reply with the number and its unit after it.

## Task Report kd for H1H6793P: fully human anti-PRLR antibody, human IgG1 Fc; HCVR/LCVR SEQ ID NOs 146/154 (antibody, V domains shown) VH: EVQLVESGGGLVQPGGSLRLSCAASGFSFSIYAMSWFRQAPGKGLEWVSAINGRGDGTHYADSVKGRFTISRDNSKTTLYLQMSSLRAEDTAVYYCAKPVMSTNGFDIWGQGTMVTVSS VL: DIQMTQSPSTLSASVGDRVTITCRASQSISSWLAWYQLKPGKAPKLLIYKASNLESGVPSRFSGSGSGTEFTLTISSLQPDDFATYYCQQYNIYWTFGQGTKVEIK please.
## Result 0.000332 s⁻¹

## Task Entry to check: H1H6782P: fully human anti-PRLR antibody, non-blocking; HCVR/LCVR SEQ ID NOs 66/74 (antibody, V domains shown) VH: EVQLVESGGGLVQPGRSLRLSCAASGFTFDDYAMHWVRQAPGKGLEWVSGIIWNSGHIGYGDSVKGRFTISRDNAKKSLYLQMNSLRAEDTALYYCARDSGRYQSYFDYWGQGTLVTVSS VL: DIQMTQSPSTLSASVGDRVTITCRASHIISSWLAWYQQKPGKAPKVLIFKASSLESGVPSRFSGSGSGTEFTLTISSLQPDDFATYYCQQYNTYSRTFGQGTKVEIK
## Result 0.000247 s⁻¹
